PROTOCOL_DETAILS: basal S. cerevisiae growth modulation, no modifier, primary screen, OD600, strain BY4716, 24 h, basal condition (AID 1173)
CONDITIONS: OD600, 24 h, higher = more signal, called active from +8 up or from −8 down
I would appreciate it if you labelled entries 1 (yes) when z-score is -0.2 or higher, otherwise 0 (no).

Recorded results for 8 compounds are shown here.
{"COMPOUND": "CCOC(=O)C[C@H]1[C@H](OC(=O)c2cc3ccccc3oc2=O)[C@@H](NC(=O)c2ccc3ccccc3n2)c2cc(OCCCO)ccc2N1C(=O)c1ccccc1", "CLASS_ASSIGNMENT": "0 (no)"}
{"COMPOUND": "COCCOC(=O)N1C(=O)[C@@]2(c3cc(C#Cc4ccc(OC)cc4)ccc31)[C@H](C(=O)N1CCN(c3ncccn3)CC1)[C@H]1C(=O)O[C@H](c3ccccc3)[C@H](c3ccccc3)N1[C@@H]2c1ccc(OCCO)cc1", "CLASS_ASSIGNMENT": "1 (yes)"}
{"COMPOUND": "CC(CCN1CCc2nc(-c3ccccc3)c(-c3ccccc3)cc2C1)=NO[C@H](C)c1cn([C@@H]2COC[C@H]2O)nn1", "CLASS_ASSIGNMENT": "0 (no)"}
{"COMPOUND": "COC(=O)[C@H](C)NC(=O)CCC1CC(OC(=O)NCCc2ccc(F)cc2)CC2(CCCC(COC(=O)NCCc3ccc(Cl)cc3)O2)O1 (stereo not given in full)", "CLASS_ASSIGNMENT": "1 (yes)"}
{"COMPOUND": "O=C1[C@H]2[C@H]3[C@H](O)[C@H](O)CC(=NOCc4ccccc4)[C@H]3CC[C@H]2C(=O)N1C[C@@H]1CCCO1", "CLASS_ASSIGNMENT": "1 (yes)"}
{"COMPOUND": "CCN1C(=O)[C@H]2[C@H]3[C@H](O)C=CC(=O)[C@@H]3CC[C@H]2C1=O", "CLASS_ASSIGNMENT": "1 (yes)"}
{"COMPOUND": "Cc1cc2c(nc1C)CCCN2CC(O)CN1CCN(C)CC1 (stereo not given)", "CLASS_ASSIGNMENT": "0 (no)"}
{"COMPOUND": "CC(C)(C)N1C(=O)[C@H]2[C@H]3[C@H](O)[C@H](O)CC(=NO[C@@H]4O[C@H](CO)[C@@H](O)[C@H](O)[C@H]4O)[C@@H]3CC[C@H]2C1=O", "CLASS_ASSIGNMENT": "0 (no)"}

Problem: Is z-score at least -0.2? Consider COC(=O)C1(C)C=C2C(=C(c3ccccc3)C(=O)C2C)CN1 (stereo not given)
Result: 1 (yes)

Problem: Is z-score at least -0.2? Consider C=CC[C@]1(C(=O)NCc2ccccc2)N=C(c2ccc(OCCCO)cc2)O[C@H]1c1ccccc1
Result: 1 (yes)

Problem: Is z-score at least -0.2? Consider COc1ccc([Si](C)(C)[C@H]2[C@H](CCO)O[C@@]3(C(=O)N(Cc4cccc(NC(=O)[C@H](C)O)c4)c4ccccc43)[C@@H]2C)cc1
Result: 0 (no)

Problem: Is z-score at least -0.2? Consider C=C(COC)/C(=C/C[C@H](OC(=O)c1ccncc1)c1ccc(CO)o1)c1cc(C(=O)OC)ccc1OC
Result: 1 (yes)

Problem: Is z-score at least -0.2? Consider COCCCNC(=O)[C@@]1(Sc2ccc(C)cc2)CC(=O)N(Cc2ccccc2)[C@@H]1c1ccc(CO)cc1I
Result: 0 (no)

Problem: Is z-score at least -0.2? Consider COC(=O)[C@@]1(Cc2ccc(OC)cc2)[C@H]2c3cc(C(=O)N4CCCC4)n(Cc4cc(F)c(F)c(F)c4)c3C[C@H]2CN1C(=O)c1ccccc1
Result: 1 (yes)

Problem: Is z-score at least -0.2? Consider CCOC(=O)NN=C1C[C@@H](O)[C@@H](O)[C@@H]2[C@@H]3C(=O)N(C(C)(C)C)C(=O)[C@@H]3CC[C@@H]12
Result: 1 (yes)
